Reference source for all entries: patent US11673866B2

- measurement-target: ERβ (Homo sapiens)
- Sequence (Q92731 whole entry, species assumed): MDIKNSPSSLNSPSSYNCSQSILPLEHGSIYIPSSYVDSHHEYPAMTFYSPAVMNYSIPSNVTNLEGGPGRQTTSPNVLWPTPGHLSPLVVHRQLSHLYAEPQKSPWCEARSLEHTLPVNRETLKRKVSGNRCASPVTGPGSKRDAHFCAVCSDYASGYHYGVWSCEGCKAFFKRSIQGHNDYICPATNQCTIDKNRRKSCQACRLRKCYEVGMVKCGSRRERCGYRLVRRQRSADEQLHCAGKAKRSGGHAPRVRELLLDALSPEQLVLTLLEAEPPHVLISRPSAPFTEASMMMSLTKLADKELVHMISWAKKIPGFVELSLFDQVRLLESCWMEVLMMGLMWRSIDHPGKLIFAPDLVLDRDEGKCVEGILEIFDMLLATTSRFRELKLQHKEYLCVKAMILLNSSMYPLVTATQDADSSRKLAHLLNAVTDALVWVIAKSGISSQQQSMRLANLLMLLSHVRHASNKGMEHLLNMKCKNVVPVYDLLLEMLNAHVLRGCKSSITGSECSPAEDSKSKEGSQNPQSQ
- test-method-notes: Relative binding affinity (RBA) to estrogen receptor beta, radiometric measurement
- applied-conditions: relative value to 100% for E2 by radiometric measurement
reported-property: RBA ERβ (%)

Use these answered entries as a reference point.
OCc1cc(O)ccc1-n1nc2ccc(O)cc2c1Cl	2.34
Cc1cc(O)ccc1-n1nc2ccc(O)cc2c1I	9.64
Oc1ccc(-n2nc3ccc(O)cc3c2F)c(Cl)c1	1.09
C=CCc1c2cc(O)ccc2nn1-c1ccc(O)cc1Br	0.86
Oc1ccc(-n2nc3ccc(O)cc3c2C2SCCS2)cc1	0.31
Oc1cc(Cl)c(-n2cc3cc(O)ccc3n2)c(Cl)c1	0.82
C=Cc1c2cc(O)ccc2nn1-c1ccc(O)cc1Br	8.04
Oc1ccc(-n2nc3ccc(O)cc3c2Cl)cc1	32.1
Oc1ccc(-n2nc3ccc(O)cc3c2I)c(Br)c1	6.64
OCc1c2cc(O)ccc2nn1-c1ccc(O)cc1	1.43

(A) Oc1ccc(-n2nc3ccc(O)cc3c2Cl)c(O)c1
(B) Oc1ccc(-n2nc3ccc(O)cc3c2F)c(I)c1
Qu. Looking at recorded values for RBA ERβ, does A or B come in lower? Which one? Tell me its label.
Ans. B
(B: 0.61%, A: 2.99%)

(P) Oc1ccc(-n2nc3ccc(O)cc3c2Cl)c(C2SCCS2)c1
(Q) Oc1ccc(-n2nc3ccc(O)cc3c2I)c(Cl)c1
(R) Cc1cc(O)ccc1-n1nc2ccc(O)cc2c1Br
(S) Cc1cc(O)ccc1-n1nc2ccc(O)cc2c1Cl
Qu. Reorder: RBA ERβ, max to min. Write the labels in rank order as requested.
Ans. S, R, Q, P

(I) Oc1ccc(-n2nc3ccc(O)cc3c2Cl)c(I)c1
(II) Oc1ccc2nn(-c3ccc(O)c(F)c3)c(Cl)c2c1
Qu. For the pair I and II , which entry has the numerically smaller recorded RBA ERβ? Lab log: write the label of the selected item as the result.
Ans. I

---

- measurement-target: ERα (Homo sapiens)
- Sequence (P03372 1-595): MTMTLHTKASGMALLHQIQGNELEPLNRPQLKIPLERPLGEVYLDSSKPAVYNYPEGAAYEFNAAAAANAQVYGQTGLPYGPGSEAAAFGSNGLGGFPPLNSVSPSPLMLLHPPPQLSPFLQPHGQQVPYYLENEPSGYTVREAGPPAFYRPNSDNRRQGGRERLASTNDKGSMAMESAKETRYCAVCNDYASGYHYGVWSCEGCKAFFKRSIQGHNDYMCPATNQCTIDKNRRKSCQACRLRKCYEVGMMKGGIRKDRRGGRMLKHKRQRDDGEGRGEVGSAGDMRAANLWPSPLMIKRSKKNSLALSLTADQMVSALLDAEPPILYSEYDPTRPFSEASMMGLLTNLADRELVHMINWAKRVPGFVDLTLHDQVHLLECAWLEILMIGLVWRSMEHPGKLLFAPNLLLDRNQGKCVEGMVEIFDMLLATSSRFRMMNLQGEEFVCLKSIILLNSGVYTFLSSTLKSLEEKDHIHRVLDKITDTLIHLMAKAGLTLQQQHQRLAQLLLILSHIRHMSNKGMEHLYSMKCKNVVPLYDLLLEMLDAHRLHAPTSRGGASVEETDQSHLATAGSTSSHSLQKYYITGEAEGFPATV
- test-method-notes: Relative binding affinity (RBA) to estrogen receptor alpha, radiometric measurement
- applied-conditions: relative value to 100% for E2 by radiometric measurement
reported-property: RBA ERα (%)

Oc1ccc(-c2c3cc(O)ccc3nn2-c2ccc(O)cc2)cc1	0.08
Oc1ccc(-n2nc3ccc(O)cc3c2Br)c(Cl)c1	0.81
Cc1cc(O)ccc1-n1nc2ccc(O)cc2c1I	1.38
Oc1ccc(-n2nc3ccc(O)cc3c2C2SCCS2)cc1	0.03
Oc1ccc(-n2nc3ccc(O)cc3c2Cl)c(C(F)(F)F)c1	2.84

(P) Oc1ccc(-n2nc3ccc(O)cc3c2Cl)c(I)c1
(Q) Oc1ccc(-n2nc3ccc(O)cc3c2Cl)c(O)c1
(R) Cc1cc(O)ccc1-n1nc2ccc(O)cc2c1Br
(S) Oc1ccc(-n2nc3ccc(O)cc3c2Cl)cc1
Qu. Which order do these items take when sorted by rising RBA ERα? List them. Thanks in advance for listing the labels in the requested order.
Ans. S, Q, P, R
(S: 0.03%, Q: 0.062%, P: 0.34%, R: 1.22%)

(1) Oc1ccc(-n2nc3ccc(O)cc3c2I)c(Cl)c1
(2) Oc1ccc(-n2nc3ccc(O)cc3c2Cl)c(F)c1
Qu. Name the one with the greater RBA ERα value, either 1 or 2 as given. Pick one; state its label.
Ans. 1
